TARGET_ENTITY: Factor X (FX), P00742
Sequence (P00742 whole entry, looked up): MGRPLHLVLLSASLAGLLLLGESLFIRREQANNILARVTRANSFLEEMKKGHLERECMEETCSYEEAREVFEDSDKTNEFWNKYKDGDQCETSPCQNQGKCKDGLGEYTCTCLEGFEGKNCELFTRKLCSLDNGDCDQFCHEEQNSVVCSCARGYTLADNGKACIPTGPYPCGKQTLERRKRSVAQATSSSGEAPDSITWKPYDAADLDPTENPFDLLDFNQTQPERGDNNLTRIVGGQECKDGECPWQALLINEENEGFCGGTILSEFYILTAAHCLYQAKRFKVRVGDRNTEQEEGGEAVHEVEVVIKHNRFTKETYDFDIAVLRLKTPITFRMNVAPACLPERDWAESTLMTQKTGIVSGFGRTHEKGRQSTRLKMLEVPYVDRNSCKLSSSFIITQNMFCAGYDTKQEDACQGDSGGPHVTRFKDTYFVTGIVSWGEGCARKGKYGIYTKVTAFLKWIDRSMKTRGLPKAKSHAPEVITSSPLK
METRIC_NAME: kcat/KM

input: Reported kcat/KM for FIXa-R318Y/R338E/R403E/E410S (protein) chain 1: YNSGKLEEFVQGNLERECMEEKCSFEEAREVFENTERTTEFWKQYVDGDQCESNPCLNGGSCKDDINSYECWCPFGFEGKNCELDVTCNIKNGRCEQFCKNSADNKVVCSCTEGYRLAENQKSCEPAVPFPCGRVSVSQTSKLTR chain 2: VVGGEDAKPGQFPWQVVLNGKVDAFCGGSIVNEKWIVTAAHCVETGVKITVVAGEHNIEETEHTEQKRNVIRIIPHHNYNAAINKYNHDIALLELDEPLVLNSYVTPICIADKEYTNIFLKFGSGYVSGWGRVFHKGYSALVLQYLRVPLVDRATCLESTKFTIYNNMFCAGFHEGGRDSCQGDSGGPHVTEVEGTSFLTGIISWGEECAMKGKYGIYTKVSEYVNWIKSKTKLT : what is it?
output: 2.1e+08 M⁻¹ s⁻¹
